- SYSTEM_TESTED: hERG (Homo sapiens, UniProt Q12809)
- Construct: host or cells: CHO (Chinese hamster ovary)
- Sequence (Q12809 whole entry): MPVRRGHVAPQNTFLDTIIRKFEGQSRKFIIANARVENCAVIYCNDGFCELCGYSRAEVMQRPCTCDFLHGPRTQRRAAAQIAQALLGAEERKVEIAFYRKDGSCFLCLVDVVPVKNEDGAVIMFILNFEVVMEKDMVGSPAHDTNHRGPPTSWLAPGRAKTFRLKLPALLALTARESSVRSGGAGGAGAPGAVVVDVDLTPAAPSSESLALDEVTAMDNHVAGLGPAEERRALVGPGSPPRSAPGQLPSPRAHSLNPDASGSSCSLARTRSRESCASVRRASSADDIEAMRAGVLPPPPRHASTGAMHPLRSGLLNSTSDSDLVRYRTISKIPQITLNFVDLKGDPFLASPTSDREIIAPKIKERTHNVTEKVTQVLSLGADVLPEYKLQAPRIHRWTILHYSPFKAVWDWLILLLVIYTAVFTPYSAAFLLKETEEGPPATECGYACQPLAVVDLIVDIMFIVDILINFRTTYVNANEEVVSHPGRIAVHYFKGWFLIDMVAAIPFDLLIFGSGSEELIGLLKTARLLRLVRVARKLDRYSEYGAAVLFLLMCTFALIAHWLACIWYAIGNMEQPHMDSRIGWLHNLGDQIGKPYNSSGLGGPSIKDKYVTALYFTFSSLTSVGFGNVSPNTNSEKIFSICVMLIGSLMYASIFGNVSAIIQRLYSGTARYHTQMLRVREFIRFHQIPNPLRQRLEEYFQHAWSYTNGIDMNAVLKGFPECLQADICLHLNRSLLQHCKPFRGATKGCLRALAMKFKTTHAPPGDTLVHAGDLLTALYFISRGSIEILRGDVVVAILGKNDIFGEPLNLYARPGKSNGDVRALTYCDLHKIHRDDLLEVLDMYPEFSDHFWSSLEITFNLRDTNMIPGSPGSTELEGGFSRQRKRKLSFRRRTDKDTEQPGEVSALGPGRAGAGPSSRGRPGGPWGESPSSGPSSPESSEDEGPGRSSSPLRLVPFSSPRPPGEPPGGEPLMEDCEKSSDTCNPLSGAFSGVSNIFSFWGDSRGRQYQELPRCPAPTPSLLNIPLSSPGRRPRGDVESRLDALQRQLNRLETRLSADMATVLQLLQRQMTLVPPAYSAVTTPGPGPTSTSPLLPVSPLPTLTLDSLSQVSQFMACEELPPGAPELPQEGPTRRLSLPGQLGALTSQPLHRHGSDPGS
- ASSAY_DETAILS: hERG automated patch clamp (CEREP)
- Type: cell-based
METRIC_NAME: inhibition at 10 µM (%)

CN1CCN(c2nc(NCCN3CCOCC3)c3nc(Cl)c(NCCN4CCOCC4)nc3n2)CC1 [JB6121] | 11

----------
- ASSAY_DETAILS: Toxicokinetics of the 7-day tox study
- Type: in vivo, rats
- STUDY_CONDITIONS: female, rat, whole blood, po, 30 mg/kg, Day 1, 30 mg/kg oral, Female
METRIC_NAME: AUC

CN1CCN(c2nc(NCCN3CCOCC3)c3nc(Cl)c(NCCN4CCOCC4)nc3n2)CC1 | 4920 ng·h/mL

Hello, the source for this data is patent US20170275287A1, in case you need it.
